assay: decrease of insulin promoter-GFP reporter – imaging, high-content screening, mouse beta cells (AID 1628); conditions: MIN6 insulin promoter GFP reporter, at 5 µM
About 930 (0.49%) of roughly 190,000 compounds were called active.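 Rule for the calls: active = z-score of insulin promoter reporter brightness in nuclei below -3 at 5 µM, with at least 500 cells counted; inconclusive = wells with under 500 cells, flagged as toxic or sparse; inactive = the rest.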 Some of the results follow. Results with a measured potency or affinity are listed apart.
Outcome (select one): 1 = active, 0 = inactive

Cn1ccc(=S)c2ccccc21: 0
COc1ccc(-n2c(Cc3cccn3C)nnc2SCC(=O)Nc2cccc(C)c2C)cc1: 0
COc1ccc(CCNc2ncnc3cc(OC)c(OC)cc23)cc1OC: 1

Data request: Hi team, can someone confirm the assay call for CCOC(=O)COc1cccc2c(=O)n(CC(=O)NCCc3ccc(OC)c(OC)c3)ccc12 ?
Data returned: 0

Data request: Hi team, can someone confirm the assay call for CN(C)C(=O)CN(c1ccc2c(c1)OCO2)S(C)(=O)=O ?
Data returned: 0

Data request: Hi team, can someone confirm the assay call for CCn1c(SCC(=O)Nc2nc3ccc(OC)cc3s2)nc2c1c(=O)n(C)c(=O)n2C ?
Data returned: 1

Data request: Hi team, can someone confirm the assay call for COc1ccc(CCNc2ncnc3[nH]ncc23)cc1OC ?
Data returned: 1

Data request: Hi team, can someone confirm the assay call for CN1CC=C2C(C#N)=C(N)C(C#N)(C#N)[C@H](c3cccs3)[C@H]2C1 ?
Data returned: 0

Data request: Hi team, can someone confirm the assay call for CCOC(=O)c1ccc(CSc2nnc(-c3ccncc3)n2N)cc1 ?
Data returned: 0

====

experiment: decrease of insulin promoter-GFP reporter – imaging, high-content screening, mouse beta cells (AID 1628); settings: MIN6 insulin promoter GFP reporter, at 5 µM
Out of some 190,000 compounds screened, about 930 (0.49%) were called active.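 Rule for the calls: active = z-score of insulin promoter reporter brightness in nuclei below -3 at 5 µM, with at least 500 cells counted; inconclusive = wells with under 500 cells, flagged as toxic or sparse; inactive = the rest.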 The list shows a part of the results. Potency and affinity values are given separately.
Outcome (select one): active, inactive

// below: answered compounds
Cc1ccccc1-n1ncc2c(SCC(=O)NCc3cccs3)ncnc21: inactive
Cc1cccc(N=Cc2[nH]c3ccc(Br)c(Cl)c3c2O)c1: inactive
O=C(CCl)N(c1ccccc1)C1CCCCC1: active
CCOCCCNc1nc2c(C)cccn2c(=O)c1/C=C1\SC(=S)N(C(C)CC)C1=O (stereo unspecified): inactive

Data request: Hi team, can someone confirm the assay call for CCC(C)(C(=O)NC1CCCC1)N(C(=O)CNC(C)=O)c1ccccc1 (stereo unspecified) ?
Data returned: inactive

Data request: Hi team, can someone confirm the assay call for COC(=O)c1c(NC(=O)c2ccc(C)c(S(=O)(=O)Nc3ccccc3C)c2)sc2c1CCCC2 ?
Data returned: active

Data request: Hi team, can someone confirm the assay call for CC(C)CCN(C(=S)Nc1cccc(F)c1)C(C)c1cccs1 (stereo unspecified) ?
Data returned: inactive

====

assay: decrease of insulin promoter-GFP reporter – imaging, high-content screening, mouse beta cells (AID 1628); settings: MIN6 insulin promoter GFP reporter, at 5 µM, hits give low values
Hit rate of the full screen: of about 190,000 compounds, about 930 (0.49%) were called active. The list shows a part of the results. Results with a measured potency or affinity are listed apart.
In this section we review reported z-score values for a set of molecules.
A bare number is all that is needed in reply.

Data request: Please supply the value of reported z-score for the item CCCCNC(=O)CSc1cc(=O)n(C)c2ccccc12
Data returned: -4.57

====

test: decrease of insulin promoter-GFP reporter – imaging, high-content screening, mouse beta cells (AID 1628); conditions: MIN6 insulin promoter GFP reporter, at 5 µM, hits give low values
Out of some 190,000 compounds screened, about 930 (0.49%) were called active. This is one part of the list. Entries with a potency or affinity are not part of this list.
property measured: z-score
A bare number is all that is needed in reply.

Data request: Please supply the value of reported z-score for the item CCCS(=O)(=O)N1CCC(C(=O)N2CCOCC2)CC1
Data returned: 4.02

Data request: Please supply the value of reported z-score for the item COCCCNc1c2c3c(cccc3[nH]c1=O)C(=O)c1ccccc1-2
Data returned: 13.6

Data request: Please supply the value of reported z-score for the item COc1ccc(-c2cnn3c4c(c(C)nc23)CCN4C2CCCC2)cc1OC
Data returned: -4.71

Data request: Please supply the value of reported z-score for the item Cc1ccc2c(c1)cc(CN(Cc1ccc3c(c1)OCO3)S(=O)(=O)c1ccccc1)c1nnnn12
Data returned: -3.75

Data request: Please supply the value of reported z-score for the item COc1ccc(C2C(C(=O)N3CCOCC3)CCC(=O)N2c2ccc(OC)cc2)cc1 (stereo not drawn)
Data returned: 3.73

Data request: Please supply the value of reported z-score for the item CN(C)Cc1nc2ccccc2c(=O)n1Cc1nc(C(C)(C)C)cs1
Data returned: -4

Data request: Please supply the value of reported z-score for the item CC(C)OCCCn1c(NN)nc2ccccc2c1=O
Data returned: -4.32

Data request: Please supply the value of reported z-score for the item NC(=S)n1[nH]c(-c2ccc([N+](=O)[O-])cc2)c(N=Nc2ccc(Cl)cc2)c1=O
Data returned: -5.03

Data request: Please supply the value of reported z-score for the item O=C(Oc1ccc2ccccc2c1)c1ccco1
Data returned: -0.59

Data request: Please supply the value of reported z-score for the item S=C(Nc1ccc(Oc2ccc(NC(=S)NC3CCCCC3)cc2)cc1)NC1CCCCC1
Data returned: -5.62

Data request: Please supply the value of reported z-score for the item COc1ccc(CCNc2oc(COc3ccccc3Cl)nc2C#N)cc1OC
Data returned: -3.1

Data request: Please supply the value of reported z-score for the item CCCC(=O)c1c(C)c2ccccc2n1C
Data returned: 3.01

Data request: Please supply the value of reported z-score for the item O=C(C1=C[C@H](C2CC2)C[C@H](OCCCCO)O1)N1CCN(Cc2ccccc2)CC1
Data returned: 3.72

Data request: Please supply the value of reported z-score for the item CC(C)N1CC=C2C(C#N)=C(N)C(C#N)(C#N)[C@H](c3ccoc3)[C@H]2C1
Data returned: 9.66

Data request: Please supply the value of reported z-score for the item O=C(Nc1nc(-c2cccs2)cs1)c1ccc(Cl)s1
Data returned: -3.6

====

assay: decrease of insulin promoter-GFP reporter – imaging, high-content screening, mouse beta cells (AID 1628); details: MIN6 insulin promoter GFP reporter, at 5 µM, hits give low values
About 930 (0.49%) of roughly 190,000 compounds were called active. This is one part of the list. Entries with a potency or affinity are not part of this list.
property measured: z-score

Before answering, review these 2 worked examples.
COc1ccc(-c2cc(=O)c3cc(OC)ccc3o2)cc1: -0.37 (inactive)
CCOC(=O)c1sc(=S)n(-c2ccccc2)c1N(C(C)=O)C(C)=O: 1.57 (inactive)

Data request: Please supply the value of reported z-score for the item COc1ccc(NC(=O)CSc2nnnn2C)c([N+](=O)[O-])c1
Data returned: 0.83 (inactive)

Data request: Please supply the value of reported z-score for the item O=C(Nc1ccc(N2CCN(C(=O)c3ccccc3)CC2)c(Cl)c1)c1ccc(Br)o1
Data returned: -3.01 (active)

Data request: Please supply the value of reported z-score for the item c1ccc(CSc2ccc(-c3ccccn3)nn2)cc1
Data returned: 4.07 (inactive)

Data request: Please supply the value of reported z-score for the item COc1ccc(NC(=O)c2sc3nc(-c4cccnc4)ccc3c2N)cc1
Data returned: 6.04 (inactive)

Data request: Please supply the value of reported z-score for the item COC1=CCC2([N+](=O)[O-])CN(CCO)CC1([N+](=O)[O-])C2 (stereo unspecified)
Data returned: 3.03 (inactive)

Data request: Please supply the value of reported z-score for the item C/C(=N/O)c1ccccn1
Data returned: 0.09 (inactive)

====

experiment: decrease of insulin promoter-GFP reporter – imaging, high-content screening, mouse beta cells (AID 1628); settings: MIN6 insulin promoter GFP reporter, at 5 µM
In all, about 190,000 compounds went through this assay and about 930 (0.49%) were called active.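 How the source made its calls: active means z-score of insulin promoter reporter brightness in nuclei below -3 at 5 µM, with at least 500 cells counted; inconclusive means wells with under 500 cells, flagged as toxic or sparse; inactive means the rest.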 The list shows a part of the results. Potency and affinity values are given separately.
Outcome (select one): active, inactive

COc1ccc(C(=O)Nc2ccc3nc(C)sc3c2)cc1OC: inactive
CC(=O)C1=C(C)NC(SCC(=O)c2ccc(Cl)c(Cl)c2)=C(C#N)C1c1ccco1 (stereo not given): inactive
Cc1cc2oc(=O)cc(CN3CCN(S(=O)(=O)c4ccc5c(c4)OCCO5)CC3)c2cc1C: active

Data request: Hi team, can someone confirm the assay call for CCOC(=O)CSC1=C(C#N)C(c2ccc(C)s2)CC(=O)N1 (stereo not given) ?
Data returned: active

Data request: Hi team, can someone confirm the assay call for Cc1nc2ccc(NC(=O)c3cc(S(=O)(=O)N4CCOCC4)ccc3C)cc2s1 ?
Data returned: active

====

experiment: decrease of insulin promoter-GFP reporter – imaging, high-content screening, mouse beta cells (AID 1628); conditions: MIN6 insulin promoter GFP reporter, at 5 µM
Among all 190,000 compounds or so, about 930 (0.49%) were called active.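 Rule for the calls: active = z-score of insulin promoter reporter brightness in nuclei below -3 at 5 µM, with at least 500 cells counted; inconclusive = wells with under 500 cells, flagged as toxic or sparse; inactive = the rest.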 The list shows a part of the results. Potency and affinity values are given separately.
Outcome (select one): active, inactive

// below: answered compounds
CC1CN(S(=O)(=O)c2ccc(C(=O)Nc3sc4c(c3C(N)=O)CCN(C)C4)cc2)CC(C)O1 (centres undefined): inactive
CCCC1C2CN(C(C)C)CC=C2C(C#N)=C(N)C1(C#N)C#N (centres undefined): inactive
CC(C)N1CCc2c(sc(NC(=O)c3ccc(S(=O)(=O)N4CCc5ccccc54)cc3)c2C(N)=O)C1: inactive

Data request: Hi team, can someone confirm the assay call for O=C1S/C(=C\c2ccc(N3CCOCC3)o2)C(=O)N1Cc1ccc(F)cc1 ?
Data returned: inactive

Data request: Hi team, can someone confirm the assay call for CNC(=O)c1c(NC(=O)c2ccc(S(=O)(=O)N3CCCc4ccccc43)cc2)sc2c1CCN(C)C2 ?
Data returned: inactive

Data request: Hi team, can someone confirm the assay call for C=C(C)c1cccc(C(C)(C)NC(=O)NCC2COCCO2)c1 (centres undefined) ?
Data returned: inactive

Data request: Hi team, can someone confirm the assay call for CC(C)(C)c1ccc(C(=O)c2c[nH]c(C(=O)NCC3CCCO3)c2)cc1 (centres undefined) ?
Data returned: active

Data request: Hi team, can someone confirm the assay call for CCC(C(=O)OCC(=O)Nc1cccc(S(=O)(=O)NC2=NCCCCC2)c1)c1ccccc1 (centres undefined) ?
Data returned: inactive

Data request: Hi team, can someone confirm the assay call for CCc1nc(Nc2ccc(N3CCN(C(C)=O)CC3)cc2)c2oc3ccccc3c2n1 ?
Data returned: active
